- Target or test system: human Nav1.7 (Homo sapiens, UniProt Q15858)
- Construct: expressed in transfected cells; host or cells: HEK293
- Sequence (Q15858 whole entry): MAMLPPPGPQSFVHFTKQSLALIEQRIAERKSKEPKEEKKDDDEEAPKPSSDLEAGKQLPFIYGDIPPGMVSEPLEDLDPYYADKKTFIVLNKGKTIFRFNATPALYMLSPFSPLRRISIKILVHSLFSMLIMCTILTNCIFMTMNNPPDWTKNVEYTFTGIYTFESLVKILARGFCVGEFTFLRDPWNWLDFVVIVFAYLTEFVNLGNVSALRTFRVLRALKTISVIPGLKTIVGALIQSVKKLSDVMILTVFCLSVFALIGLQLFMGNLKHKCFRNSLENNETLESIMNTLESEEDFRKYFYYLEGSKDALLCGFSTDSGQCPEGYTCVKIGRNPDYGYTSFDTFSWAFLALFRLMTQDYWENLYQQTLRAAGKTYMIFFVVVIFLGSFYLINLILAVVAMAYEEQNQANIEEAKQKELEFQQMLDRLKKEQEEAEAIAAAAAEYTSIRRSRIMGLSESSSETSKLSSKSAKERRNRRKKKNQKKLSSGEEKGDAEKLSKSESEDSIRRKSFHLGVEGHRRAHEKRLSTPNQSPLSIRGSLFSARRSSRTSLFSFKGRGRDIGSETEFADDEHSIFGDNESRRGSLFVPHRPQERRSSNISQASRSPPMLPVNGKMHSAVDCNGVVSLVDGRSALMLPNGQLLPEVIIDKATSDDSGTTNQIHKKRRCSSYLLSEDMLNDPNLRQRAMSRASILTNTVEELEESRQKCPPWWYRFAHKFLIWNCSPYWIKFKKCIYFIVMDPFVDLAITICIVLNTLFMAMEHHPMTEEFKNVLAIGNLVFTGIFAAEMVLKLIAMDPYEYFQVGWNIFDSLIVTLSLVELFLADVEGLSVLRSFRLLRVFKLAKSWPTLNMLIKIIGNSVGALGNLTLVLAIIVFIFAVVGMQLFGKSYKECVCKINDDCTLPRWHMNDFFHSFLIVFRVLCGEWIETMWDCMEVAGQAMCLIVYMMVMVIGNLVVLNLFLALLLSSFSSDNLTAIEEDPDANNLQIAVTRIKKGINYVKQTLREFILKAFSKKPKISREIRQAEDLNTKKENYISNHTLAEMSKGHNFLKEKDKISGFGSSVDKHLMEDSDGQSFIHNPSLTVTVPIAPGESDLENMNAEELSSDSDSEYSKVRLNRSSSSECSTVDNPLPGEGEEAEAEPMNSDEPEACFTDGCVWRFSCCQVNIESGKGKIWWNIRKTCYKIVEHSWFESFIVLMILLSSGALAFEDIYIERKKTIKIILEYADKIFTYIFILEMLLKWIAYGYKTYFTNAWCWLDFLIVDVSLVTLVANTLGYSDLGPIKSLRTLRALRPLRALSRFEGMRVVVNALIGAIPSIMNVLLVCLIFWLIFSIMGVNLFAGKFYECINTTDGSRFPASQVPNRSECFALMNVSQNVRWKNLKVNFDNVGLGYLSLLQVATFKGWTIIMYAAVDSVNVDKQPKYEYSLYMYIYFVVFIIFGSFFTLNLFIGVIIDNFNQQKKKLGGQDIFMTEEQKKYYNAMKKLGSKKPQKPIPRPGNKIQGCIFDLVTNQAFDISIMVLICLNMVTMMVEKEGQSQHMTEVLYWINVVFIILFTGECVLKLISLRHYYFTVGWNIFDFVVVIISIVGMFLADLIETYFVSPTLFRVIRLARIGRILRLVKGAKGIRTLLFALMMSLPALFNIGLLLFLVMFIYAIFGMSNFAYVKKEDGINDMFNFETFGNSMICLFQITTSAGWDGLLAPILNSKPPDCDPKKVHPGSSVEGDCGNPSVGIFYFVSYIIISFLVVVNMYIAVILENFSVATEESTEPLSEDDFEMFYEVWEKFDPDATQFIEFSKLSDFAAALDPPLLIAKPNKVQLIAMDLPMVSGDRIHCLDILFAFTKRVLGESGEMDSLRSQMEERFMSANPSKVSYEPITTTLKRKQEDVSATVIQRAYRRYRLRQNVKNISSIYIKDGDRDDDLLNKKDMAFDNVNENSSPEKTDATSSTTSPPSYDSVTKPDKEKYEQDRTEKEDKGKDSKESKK
- Measurement notes: Nav 1.7 In Vitro PatchXpress (PX) Assay
- Format: cell-based
- Measurement setup: HEK 293 cells stably transfected with human Nav1.7; PatchXpress whole cell voltage clamp; partially inactivated state (holding potential yielding 20 to 50% inactivation); read-out: hNav1.7 PX IC50
pIC50: −log10 of the molar value.
Ranges used to classify pIC50: low (below 6), moderate (6 to below 7), high (7 or more)

In [3]: df
Out[3]:
                                   compound  label_value
0  COc1cc(-c2cc(F)cc(F)c2)c(F)cc1-n1c2c(ccc1=O)CN(S(=O)(=O)Nc1ncc(F)cn1)CC2 (racemic) [Example 10-(Rac)]          low
1  COc1cc(C#CC2CCCC2)c(F)cc1-n1c2c(ccc1=O)CN(S(=O)(=O)Nc1ccon1)CC2 (single isomer, unassigned) [Example 34-P]     moderate
2  COc1cc(-c2cc(C)cc(C(F)(F)F)c2)c(F)cc1-n1c2c(ccc1=O)CN(S(=O)(=O)Nc1cccnn1)CC2         high

Sort COc1cc(-c2cc(F)cc(F)c2)c(F)cc1-n1c2c(ccc1=O)CN(S(=O)(=O)Nc1ccon1)[C@H](C)C2 [Example 3-D-M] into one of the categories. low

Then this compound: COc1cc(-c2cc(F)cc(F)c2)c(F)cc1-n1c2c(ccc1=O)CN(S(=O)(=O)Nc1ncon1)CC2 (single isomer, unassigned) [Example 17-M] moderate

Then this compound: COc1cc(-c2ccc(F)c(C)c2)c(Cl)cc1-n1c2c(ccc1=O)CN(S(=O)(=O)Nc1cccnn1)CC2 (single isomer, unassigned) [Example 92-M] low

Then this compound: COc1cc(-c2cc(F)cc(Cl)c2)c(F)cc1-n1c2c(ccc1=O)CN(S(=O)(=O)Nc1ccc(F)cn1)CC2 (single isomer, unassigned) [Example 12-P] high

Then this compound: COc1cc(-c2cc(F)cc(F)c2)c(F)cc1-n1c2c(ccc1=O)CN(S(=O)(=O)Nc1ccon1)CC2 (racemic) [Example 25-(Rac)] moderate

Then this compound: COc1cc(-c2cc(F)cc(Cl)c2)c(F)cc1-n1c2c(ccc1=O)CN(S(=O)(=O)Nc1ncccn1)CC2 (single isomer, unassigned) [Example 31-M] low

Then this compound: COc1cc(-c2cc(C(F)(F)F)cnc2OC)c(F)cc1-n1c2c(ccc1=O)CN(S(=O)(=O)Nc1ccon1)CC2 (racemic) high

Then this compound: COc1cc(-c2cc(F)cc(Cl)c2)ccc1-n1c2c(ccc1=O)CN(S(=O)(=O)Nc1ccon1)CC2 (racemic) [7-(Rac)] moderate

Then this compound: COc1cc(-c2ccc(Cl)c(C)c2)c(F)cc1-n1c2c(ccc1=O)CN(S(=O)(=O)Nc1ccon1)CC2 (single isomer, unassigned) [Example 24-P] high

Then this compound: COc1cc(-c2cc(OC)c(-n3c4c(ccc3=O)CN(S(=O)(=O)Nc3cccnn3)CC4)cc2F)ccc1Cl (single isomer, unassigned) [Example 2-M] low

The measured values listed here are drawn from patent US10472356B2.
